- System Tested: ATAD2A (Homo sapiens, UniProt Q6PL18)
- Sequence (Q6PL18 980-1092 limits assumed): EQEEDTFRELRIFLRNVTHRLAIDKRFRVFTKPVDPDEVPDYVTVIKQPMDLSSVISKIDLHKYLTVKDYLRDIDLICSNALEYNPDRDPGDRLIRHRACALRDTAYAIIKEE
- Method Description: BROMOscan ligand-binding assay
- Assay Conditions: BROMOscan, ATAD2A
pKd: −log10 of the molar value.
Property Name: pKd

>>> measured_value("O=C(C=CN1[C@H]2CC[C@@H]1c1ncnc(NC3CC3)c1C2)c1ccccc1O [PFI-3 D1]")
"< 4.52"

====

- System Tested: BRD4(2) (Homo sapiens)
- Method Description: BROMOscan ligand-binding assay
- Assay Conditions: BRD4(2)
Property Name: Kd

>>> measured_value("COc1cc(C#N)ccc1S(=O)(=O)Nc1ccc2c(c1)cc(C)c(=O)n2C")
"> 50 µM"

====

- System Tested: MLL1 (Trimeric) (Homo sapiens)
- Construct: purchased DiscoverX BROMOscan (bromodomains); SGC in-house methyltransferase panel
- Method Description: Methyl transferase scintillation proximity assay
- Assay type: biochemical
- Assay Conditions: average of two measurements, read-out: MTases Inhibition (%)
Reported inhibition at 10 µM values for the following compounds.
Property Name: inhibition at 10 µM (%)

>>> measured_value("CN1C[C@H](Nc2cnn(C)c(=O)c2Br)C[C@H](c2ccccc2)C1")
8
>>> measured_value("Cc1nnc2c3ccccc3c(N[C@@H](C)[C@H](c3ccccc3)N(C)C)nn12")
20
>>> measured_value("Cc1c(NC(=O)c2cc(C(N)=O)nc3cc(F)ccc23)c(C(F)(F)F)nn1Cc1ccc(C#N)cc1")
11
>>> measured_value("CN(C)CCCOc1ccc(-c2cc(NCCCn3cccn3)nc(S(C)(=O)=O)n2)cc1")
17
>>> measured_value("CO[C@H]1CNC[C@@H](OCC2CCC(F)(F)CC2)[C@@H]1Nc1ncc(-c2cncc(C)c2)c2cc(C)c(=O)[nH]c12")
6
>>> measured_value("Cc1c(NC(=O)c2cc(C(N)=O)nc3cc(F)ccc23)c(C(F)(F)F)nn1Cc1ccc(C(C)(C)C)cc1")
7
>>> measured_value("COc1cc(Cl)c(C(=O)N[C@@H](CN[C@H]2CC[C@@H](N)CC2)Cc2ccc(C#N)cc2)cc1-c1ccc(CN[C@H](C)c2ccc(C)cc2)o1")
-1

====

- System Tested: SMYD3 (Homo sapiens, UniProt Q9H7B4)
- Construct: purchased DiscoverX BROMOscan (bromodomains); SGC in-house methyltransferase panel
- Sequence (Q9H7B4 1-428): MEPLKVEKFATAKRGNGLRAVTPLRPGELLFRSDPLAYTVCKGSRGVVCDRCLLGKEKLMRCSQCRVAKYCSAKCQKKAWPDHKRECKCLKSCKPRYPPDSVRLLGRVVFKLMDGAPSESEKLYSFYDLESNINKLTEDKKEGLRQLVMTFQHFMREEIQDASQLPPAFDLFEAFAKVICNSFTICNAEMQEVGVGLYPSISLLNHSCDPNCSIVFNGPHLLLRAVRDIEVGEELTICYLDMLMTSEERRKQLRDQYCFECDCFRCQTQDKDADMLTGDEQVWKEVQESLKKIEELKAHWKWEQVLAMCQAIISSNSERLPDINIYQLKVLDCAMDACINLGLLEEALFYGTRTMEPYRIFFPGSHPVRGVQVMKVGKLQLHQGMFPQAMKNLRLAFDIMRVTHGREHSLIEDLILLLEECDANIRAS
- Method Description: Methyl transferase scintillation proximity assay
- Format: biochemical
- Assay Conditions: average of two measurements, read-out: MTases Inhibition (%)
// reported inhibition at 10 µM for each item listed
Property Name: inhibition at 10 µM (%)

>>> measured_value("COc1cc(Cl)c(C(=O)N[C@@H](CN[C@H]2CC[C@@H](N)CC2)Cc2ccc(C#N)cc2)cc1-c1ccc(CN[C@H](C)c2ccc(C)cc2)o1")
6
>>> measured_value("CN1C[C@H](Nc2cnn(C)c(=O)c2Br)C[C@H](c2ccccc2)C1")
1
>>> measured_value("CO[C@H]1CNC[C@@H](OCC2CCC(F)(F)CC2)[C@@H]1Nc1ncc(-c2cncc(C)c2)c2cc(C)c(=O)[nH]c12")
8
>>> measured_value("Cc1nnc2c3ccccc3c(N[C@@H](C)[C@H](c3ccccc3)N(C)C)nn12")
10
>>> measured_value("CN(C)CCCOc1ccc(-c2cc(NCCCn3cccn3)nc(S(C)(=O)=O)n2)cc1")
7
>>> measured_value("Cc1c(NC(=O)c2cc(C(N)=O)nc3cc(F)ccc23)c(C(F)(F)F)nn1Cc1ccc(C#N)cc1")
3
>>> measured_value("Cc1c(NC(=O)c2cc(C(N)=O)nc3cc(F)ccc23)c(C(F)(F)F)nn1Cc1ccc(C(C)(C)C)cc1")
7
